- test system: T1, human BDCA2 (human, UniProt Q8WTT0 1-213)
- T1 sequence (looked up): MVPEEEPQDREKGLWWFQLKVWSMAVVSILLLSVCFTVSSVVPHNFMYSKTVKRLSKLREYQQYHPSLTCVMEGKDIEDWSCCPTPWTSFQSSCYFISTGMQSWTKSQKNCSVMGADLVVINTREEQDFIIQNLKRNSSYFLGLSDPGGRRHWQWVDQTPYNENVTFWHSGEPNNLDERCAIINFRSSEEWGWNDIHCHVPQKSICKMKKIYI
- test: cell-based or functional assay
measured parameter: EC50 (nM), inhibition of CpG-A stimulated IFNα release from human PBMC

Q: Give the reported value of EC50 (nM), inhibition of CpG-A stimulated IFNα release from human PBMC for this record: Hu033-13 (antibody, IgG1, V domains shown, Humanized IgG1; also called Hu033-13(BM4)) VH: EVQLVESGGGLVKPGGSLRLSCAASGFTFRSYGMSWVRQAPGKRLEWVSTISSGDSYTYYPDSVKGRFTISRDNAKNSLYLQMNSLRAEDTAVYYCARQIYYDYAYYFDFWGQGTTVTVSS VL: DIVLTQSPDSLAVSLGERATINCRASESVSFRTSHLMHWYQQKPGQPPKLLIYGASNLESGVPDRFSGSGSGTDFTLTISSLQAEDVAVYFCQQSIEDPPTFGGGTKVEIK
Result: 0.01 nM

Q: Provide EC50 (nM), inhibition of CpG-A stimulated IFNα release from human PBMC value for the following binder: BIIB059 (antibody, V domains shown) VH: DVQLVESGGGLVKPGGSLRLSCAASGFTFSTYTMSWVRQAPGKGLEWVATISPGDSFGYYYPDSVQGRFTISRDNAKNSLYLQMNSLRAEDTAVYYCTRDIYYNYGAWFAYWGQGTLVTVSS VL: DIQLTQSPSSLSASVGDRVTITCKASQSVDYDGDSYMNWYQQKPGKAPKLLIYAASTLESGVPSRFSGSGSGTDFTLTISSLQPEDFATYYCQQANEDPRTFGQGTKVEIKR
Result: 0.04 nM

Q: Provide measured EC50 (nM), inhibition of CpG-A stimulated IFNα release from human PBMC value, entry: Hu033-08 (antibody, IgG1, V domains shown, Humanized IgG1; also called Hu033-08(BM2)) VH: EVQLVESGGGLVKPGGSLRLSCAASGFTFSSYGMSWVRQAPGKGLEWVSTISSGDSYTYYPDSVKGRFTISRDNAKNSLYLQMNSLRAEDTAVYYCARQIYYDYAYYFDFWGQGTTVTVSS VL: EIVLTQSPATLSLSPGERATLSCRASESVSFRTSHLMHWYQQKPGQAPRLLIYGASNLESGIPARFSGSGSETDFTLTISRLEPEDFAVYFCQQSIEDPPTFGGGTKVEIK
Result: 0.02 nM

Cited source for all entries: patent US20250346673A1
